Value source: patent US20090060984A1

tested on: Staphylococcus aureus; experiment: Growth on surfactant/TSA agar plates; type: cell-based; settings: Staphylococcus aureus strain EM24/ATCC25923; further: test concentration or dose not given here
MEASUREMENT_LABEL: No Growth(−)/Full Growth(+), replicate columns

{"columns": ["COMPOUND", "EXPERIMENTAL_RESULT"],
 "data": [
  ["CC(C)CC(C)OC(=O)CC(C(=O)OC(C)CC(C)C)S(=O)(=O)[O-].[Na+] (stereo not drawn)", "+"],
  ["CCCCC(CC)COP(=O)([O-])OCCC(CC)CCC.[Na+] (stereo not drawn)", "−"],
  ["CCCCCCCCCCCCCOC(=O)CC(C(=O)OCCCCCCCCCCCCC)S(=O)(=O)[O-].[Na+] (stereo not drawn)", "+"],
  ["O=C(CC(C(=O)OC1CCCCC1)S(=O)(=O)[O-])OC1CCCCC1.[Na+] (stereo not drawn)", "+"],
  ["CCCCCCCCCCCCCCCCCCNC(=O)CC(C(=O)[O-])S(=O)(=O)[O-].[Na+].[Na+] (stereo not drawn)", "−"],
  ["CCCCC(CC)COC(=O)CC(C(=O)OCC(CC)CCCC)S(=O)(=O)[O-].[Na+] (stereo not drawn)", "−"]
]}
